testSystem: Ribonuclease T1 (Aspergillus oryzae)
Sequence (P00651 27-130): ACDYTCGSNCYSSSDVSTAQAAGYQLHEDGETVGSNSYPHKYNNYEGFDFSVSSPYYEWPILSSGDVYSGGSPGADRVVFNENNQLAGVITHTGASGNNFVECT
assayDetails: Visual detection ribonuclease assay, cleavage of Substrate ODN by RNase T1
Format: biochemical
Parameters: key: +++ = maximum intensity; ++ = moderate intensity; + = faint but above background; − = negative (identical to background)
conditions: RNase T1 10^−4 units/ml; visual inspection, UV excitation; Substrate 500 nM; 37° C. 60 minutes
endpointName: Sensitivity of Substrate ODN to Ribonuclease T1, relative signal intensity

- substance: "5′ Fluorescein-AcgaA-Dabcyl 3′ (NACGAAN; 5' fluorescein and 3' Dabcyl labels, nucleotide chemistry not given here) [SEQ ID NO:12]"
  result: "++"
- substance: "5′ Fluorescein-AaugcA-QSY-7 3′ (NAAUGCAN; 5' fluorescein and 3' QSY-7 labels, nucleotide chemistry not given here) [SEQ ID NO:29]"
  result: "+++"
- substance: "5′ Fluorescein-AcuaA-Dabcyl 3′ (NACUAAN; 5' fluorescein and 3' Dabcyl labels, nucleotide chemistry not given here) [SEQ ID NO:17]"
  result: "−"
- substance: "5′ Fluorescein-AgcuAA-Dabcyl 3′ (NAGCUAAN; 5' fluorescein and 3' Dabcyl labels, nucleotide chemistry not given here) [SEQ ID NO:11]"
  result: "−"
- substance: "5′ Fluorescein-AAaAA-Dabcyl 3′ (NAAAAAN; 5' fluorescein and 3' Dabcyl labels, nucleotide chemistry not given here) [SEQ ID NO:6]"
  result: "−"
